test: serotonin-gated TRPC4 signal block – cell-based, second counter screen, HEK293 TRPC4/5HT1a, Fluo-4, counter-screen for TRPC4 inhibitor project, confirmation (AID 434978); details: Fluo-4 calcium flux, at 10 µM, serotonin added to trigger calcium flux
Active and inactive are the calls of the source.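 The calls were made as follows: active = primary screen active whose calcium signal fell more than 3 SD beyond the full-serotonin control mean in both duplicate plates; inactive = the rest.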
Labels: class 1 = active, class 0 = inactive

[
  {
    "Compound": "COc1ccc2c(c1)C=C(CN1CCC(CO)(CCc3ccccc3)CC1)CO2",
    "Class": "class 1"
  },
  {
    "Compound": "CC(=NCCN1CCN(C(C)=C2C(=O)c3ccccc3C2=O)CC1)C1=C(O)CC(C)(C)CC1=O",
    "Class": "class 0"
  },
  {
    "Compound": "COc1ccc(OC)c(NC(=O)COC(=O)Cc2ccc(-c3ccccc3)cc2)c1",
    "Class": "class 0"
  },
  {
    "Compound": "Cc1ccc(-c2[nH]c3ccccc3c2SCCN)cc1",
    "Class": "class 0"
  },
  {
    "Compound": "CCC(=O)N1CCc2cc(S(=O)(=O)NCCN3CCCCC3CC)ccc21 (stereo unspecified)",
    "Class": "class 1"
  },
  {
    "Compound": "Cc1nn(C(=O)c2cccnc2)c(C)c1Sc1ccccc1",
    "Class": "class 1"
  },
  {
    "Compound": "Cc1ccc(C2N(c3cccc(Cl)c3)C(=O)C3CCCN32)o1 (stereo unspecified)",
    "Class": "class 0"
  },
  {
    "Compound": "CCOC(=O)C1=C(CNCCc2ccc(Cl)cc2)NC(=O)NC1c1cccc([N+](=O)[O-])c1 (stereo unspecified)",
    "Class": "class 0"
  },
  {
    "Compound": "Clc1ccc(CN2C3=NCCN3c3ccccc32)cc1",
    "Class": "class 1"
  },
  {
    "Compound": "CCOc1ccc(-n2c(SCC(=O)O)nc3sc4c(c3c2=O)CCCC4)cc1",
    "Class": "class 0"
  },
  {
    "Compound": "O=C(NCCc1ccccn1)c1ccc(COc2ccccc2)o1",
    "Class": "class 0"
  }
]

====

system: transient receptor potential cation channel C4 beta (TRPC4), mouse; experiment: TRPC4 cation channel opening, second retest – cell-based, second round, Fluo4, HEK293 TRPC4beta/mu-opioid, 1 µM, confirmation (AID 2461); conditions: Fluo4 calcium fluorescence, at 1 µM
Calls of active or inactive are those of the source.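 How the source made its calls: active means primary screen active and over 50% activation in each of two duplicate runs; inactive means the rest.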
Labels: class 1 for active, class 0 for inactive

[
  {
    "Molecule": "O=[N+]([O-])c1c(Nc2cccc(O)c2)cc(Cl)c2nonc12",
    "Class": "class 0"
  },
  {
    "Molecule": "COc1ccccc1N(C(=O)c1snc(C(N)=O)c1N)C(C(=O)NCc1ccccc1)c1ccc(C)o1 (configuration not stated)",
    "Class": "class 0"
  },
  {
    "Molecule": "Cc1cc(C)c(S(=O)(=O)N2CCN(C)CC2)c(C)c1",
    "Class": "class 0"
  },
  {
    "Molecule": "COc1ccc(Cl)cc1C(=O)NCCN(C)C",
    "Class": "class 0"
  },
  {
    "Molecule": "CCCCn1c(SCC(=O)OCC)nc2c(sc(=S)n2-c2ccccc2OC)c1=O",
    "Class": "class 0"
  },
  {
    "Molecule": "c1ccc(CN2CCN(Cc3c[nH]c4ccccc34)CC2)cc1",
    "Class": "class 0"
  },
  {
    "Molecule": "CC1(C)CN=c2s/c(=C\\c3ccc(Cl)cc3)c(=O)n2C1",
    "Class": "class 0"
  },
  {
    "Molecule": "CC(C)c1nc(CNC(=O)CC2C(=O)NCCN2Cc2ccc(F)cc2Cl)cs1 (configuration not stated)",
    "Class": "class 0"
  },
  {
    "Molecule": "C=CCSc1nc2c(c(=O)[nH]c(=O)n2C)n1C/C=C(/C)Cl",
    "Class": "class 0"
  },
  {
    "Molecule": "CCC(=O)N1CCc2cc(Br)cc(S(=O)(=O)NCCCN(CC)Cc3ccccc3)c21",
    "Class": "class 1"
  },
  {
    "Molecule": "COc1cccc(C(=O)NC2CCCN(C3Cc4ccccc4C3)C2)c1OC (configuration not stated)",
    "Class": "class 0"
  },
  {
    "Molecule": "COc1ccccc1CC(Cc1nc2ccccc2[nH]1)c1nc2ccccc2[nH]1 (configuration not stated)",
    "Class": "class 0"
  },
  {
    "Molecule": "C=CCc1ccccc1OCC(CN1CCCCC1)OC(C)=O (configuration not stated)",
    "Class": "class 0"
  },
  {
    "Molecule": "CC(=O)n1cc([C@@H]2C=C(C(=O)NCc3ccccc3)O[C@H](OCc3ccc(CO)cc3)C2)c2ccccc21",
    "Class": "class 0"
  },
  {
    "Molecule": "Cc1cc(C)cc(N(CC(=O)Nc2ccc(C)cc2Cl)S(=O)(=O)c2c(C)[nH]c(=O)[nH]c2=O)c1",
    "Class": "class 0"
  },
  {
    "Molecule": "Cc1ccc(CS(=O)(=O)CCC(=O)NCCC2=CCCCC2)cc1",
    "Class": "class 0"
  },
  {
    "Molecule": "Brc1ccc(N/N=C(/N=Nc2nn[nH]n2)c2ccccc2)cc1",
    "Class": "class 0"
  },
  {
    "Molecule": "COC(=O)CSc1nn(-c2ccc(F)cc2)c(=S)s1",
    "Class": "class 0"
  },
  {
    "Molecule": "Cc1ccccc1C(=O)NNC(=S)NC(=O)COc1ccccc1",
    "Class": "class 0"
  },
  {
    "Molecule": "Cc1cc(Nc2ccc3c(c2)OCCO3)c2ccccc2n1",
    "Class": "class 0"
  },
  {
    "Molecule": "NC(=O)N/N=C1\\c2ccccc2-c2c(C(N)=O)cccc21",
    "Class": "class 0"
  },
  {
    "Molecule": "Cc1ccn2c(CNCCCn3cccn3)c(C(=O)N3CCCCCC3)nc2c1",
    "Class": "class 0"
  }
]

====

biological target: Short transient receptor potential channel 4 (Mus musculus) (UniProt Q9QUQ5); test: blockers of DAMGO-evoked TRPC4 calcium flux – cell-based, second round, Fluo4, HEK293 TRPC4beta/mu-opioid, 1 µM, confirmation (AID 2637); conditions: at 1 µM
Sequence (Q9QUQ5 whole entry, looked up): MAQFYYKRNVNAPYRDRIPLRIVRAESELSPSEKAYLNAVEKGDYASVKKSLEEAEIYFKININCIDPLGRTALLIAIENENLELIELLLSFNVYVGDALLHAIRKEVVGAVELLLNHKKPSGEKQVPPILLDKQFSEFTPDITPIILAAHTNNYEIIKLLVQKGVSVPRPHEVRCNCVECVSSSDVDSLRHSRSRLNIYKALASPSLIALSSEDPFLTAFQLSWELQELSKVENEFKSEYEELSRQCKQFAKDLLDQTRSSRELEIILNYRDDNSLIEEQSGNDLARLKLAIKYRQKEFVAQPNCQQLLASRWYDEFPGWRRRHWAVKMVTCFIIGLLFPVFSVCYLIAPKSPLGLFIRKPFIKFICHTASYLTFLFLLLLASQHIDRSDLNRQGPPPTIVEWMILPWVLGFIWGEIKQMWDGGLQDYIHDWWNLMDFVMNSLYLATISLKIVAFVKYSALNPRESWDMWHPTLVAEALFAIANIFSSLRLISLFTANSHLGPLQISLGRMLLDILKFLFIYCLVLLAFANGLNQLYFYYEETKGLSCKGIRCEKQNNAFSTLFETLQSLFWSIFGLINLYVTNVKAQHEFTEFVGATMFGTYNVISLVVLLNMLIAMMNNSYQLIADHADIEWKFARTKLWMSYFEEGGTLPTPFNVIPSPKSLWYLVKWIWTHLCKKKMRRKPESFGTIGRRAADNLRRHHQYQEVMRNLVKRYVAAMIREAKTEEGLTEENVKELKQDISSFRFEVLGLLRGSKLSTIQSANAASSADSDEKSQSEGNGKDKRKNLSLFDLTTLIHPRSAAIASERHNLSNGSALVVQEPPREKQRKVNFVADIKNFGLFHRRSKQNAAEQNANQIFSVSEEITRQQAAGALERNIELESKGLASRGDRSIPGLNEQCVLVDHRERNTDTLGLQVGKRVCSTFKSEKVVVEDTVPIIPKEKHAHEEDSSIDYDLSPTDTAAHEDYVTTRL
Calls of active or inactive are those of the source.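 The calls were made as follows: active = calcium signal ratio cut to more than 3 SD under the fully stimulated control mean yet still positive, in both repeats and the primary screen; inactive = the rest.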
Outcomes: active, inactive

[
  {
    "Molecule": "CCCn1c(=O)c2sccc2n2c(CCCC(=O)NC3CCN(Cc4ccccc4)CC3)nnc12",
    "Class": "inactive"
  },
  {
    "Molecule": "C/C=C/Cn1c(SCCCc2ccccc2)nc2c1c(=O)[nH]c(=O)n2C",
    "Class": "inactive"
  },
  {
    "Molecule": "CCOC(=O)c1ccc(NC(=S)N2CCSC2c2ccc(Cl)cc2)cc1 (stereo not drawn)",
    "Class": "inactive"
  },
  {
    "Molecule": "O=C(Nc1cccc(Cl)c1)N1CCN(C/C=C/c2ccccc2)CC1",
    "Class": "inactive"
  },
  {
    "Molecule": "CCOc1ccc(Cl)cc1/C=N/O",
    "Class": "inactive"
  },
  {
    "Molecule": "CCCn1c(N)c(C(=O)CSc2n[nH]c(-c3ccc(C)cc3)n2)c(=O)[nH]c1=O",
    "Class": "inactive"
  },
  {
    "Molecule": "O=C(NCCNC1CCC(c2ccccc2)CC1)c1cccs1 (stereo not drawn)",
    "Class": "inactive"
  },
  {
    "Molecule": "O=C(CCc1ccccc1)Nc1ccnn1C1CCN(C/C=C/c2ccccc2)CC1",
    "Class": "inactive"
  },
  {
    "Molecule": "O=C1CC2(CCN(S(=O)(=O)c3ccccc3)CC2)Oc2ccccc21",
    "Class": "inactive"
  },
  {
    "Molecule": "CCNc1nc(NC(C)(C)C)nc(N2CCCC2)n1",
    "Class": "inactive"
  },
  {
    "Molecule": "CC(=O)Nc1ccc(S(=O)(=O)Nc2nc3ccc(C)cc3s2)cc1",
    "Class": "inactive"
  },
  {
    "Molecule": "CCOC(=O)C1(CC2CC2)CCN(Cc2cn[nH]c2-c2cccc(F)c2)CC1",
    "Class": "inactive"
  },
  {
    "Molecule": "COc1ccc(CN2CCN(c3nc4ccccc4s3)CC2)cc1",
    "Class": "inactive"
  },
  {
    "Molecule": "Cc1ccn2cc(CCNC(=O)c3ccc(Br)o3)nc2c1",
    "Class": "inactive"
  },
  {
    "Molecule": "Cc1ccc(C(=O)Nc2nnc(C3=COCCO3)o2)cc1C",
    "Class": "active"
  },
  {
    "Molecule": "Cc1ccc(NC(=O)CNc2ccccc2CN(C)C2CCCCC2)cc1",
    "Class": "inactive"
  },
  {
    "Molecule": "O=C(CSc1nnc(-c2ccc(Cl)cc2Cl)n1C1CCCCC1)NC1CCS(=O)(=O)C1 (stereo not drawn)",
    "Class": "inactive"
  },
  {
    "Molecule": "C=CCn1c(SCC(=O)c2ccc(NS(=O)(=O)c3ccccc3)cc2)nnc1-c1cccs1",
    "Class": "inactive"
  },
  {
    "Molecule": "CC(C)c1cccc(OCCCCN(C)C)c1",
    "Class": "inactive"
  },
  {
    "Molecule": "Cc1ccc(C2N(c3cccc(Cl)c3)C(=O)C3CCCN32)o1 (stereo not drawn)",
    "Class": "inactive"
  },
  {
    "Molecule": "COc1ccc(-n2cc(CNCc3cccnc3)c(-c3cccc(F)c3)n2)cc1",
    "Class": "inactive"
  },
  {
    "Molecule": "Cc1ccccc1C(=O)NNC(=S)NC(=O)c1cccs1",
    "Class": "inactive"
  },
  {
    "Molecule": "O=[N+]([O-])c1cc(Cc2ccccc2)cc(C=Nc2ccc(N3CCOCC3)cc2)c1O",
    "Class": "inactive"
  }
]

Data origin: PubChem BioAssay
